Target: T1, human DLL3 protein (human, UniProt Q9NYJ7 27-492, limits assumed)
T1 construct: Soluble human DLL3 protein used in BLI; also called Delta-like protein 3
T1 sequence (looked up): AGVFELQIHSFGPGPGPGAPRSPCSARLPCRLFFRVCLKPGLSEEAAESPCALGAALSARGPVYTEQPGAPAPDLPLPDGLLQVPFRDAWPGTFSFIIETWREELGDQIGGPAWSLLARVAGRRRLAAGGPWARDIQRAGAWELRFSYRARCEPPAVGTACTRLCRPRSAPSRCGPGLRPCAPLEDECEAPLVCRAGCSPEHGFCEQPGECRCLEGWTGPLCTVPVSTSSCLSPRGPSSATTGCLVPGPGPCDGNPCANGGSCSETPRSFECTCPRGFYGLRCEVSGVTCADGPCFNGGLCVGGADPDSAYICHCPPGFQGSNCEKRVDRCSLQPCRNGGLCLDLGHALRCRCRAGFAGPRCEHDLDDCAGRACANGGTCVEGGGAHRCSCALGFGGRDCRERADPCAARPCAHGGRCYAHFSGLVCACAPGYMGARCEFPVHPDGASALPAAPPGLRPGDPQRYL
Test: BLI, scFv-Fc against human DLL3 protein
Endpoint: koff (s⁻¹)
Write the answer as a number in s⁻¹, unit excluded.

QUERY: Find the recorded koff belonging to Ab.63 scFv-human IgG Fc (Fc fusion, Tested as scFv-human IgG Fc; not shown: human IgG Fc) QIVLTQSPGTLSLSPGERATLSCRASQSVTRGYLAWYQQKPGQAPRLLFYGASNRATDIPDRFSGSGSGTDFTLIISRLEPEDFAVYYCQQYGISPLTFGGGTKVEIKGGGGSGGGGSGGGGSQVQLHESGPGLVKPSETLSLTCTVSGASISSYYWSWIRQPPGKGLEWIGYIYYSGTTNFNPSLKSRVTISVDTSKNQFSLRLSSVTTADTAVYYCANLALTGFHFDYWGQGTLVTVSS and report it.
RESULT: 0.000597
